Exercise: for every item that follows, state its recorded pKd.
biological target: HLA-A*24:03; assay: IEDB peptide-MHC binding, purified MHC/direct/fluorescence; filed as Kd, often an IC50 or EC50 that approximates it; bounds were set here for any values at or beyond the usual limits of such assays; details: source organism: Yersinia pestis
pKd: −log10 of the molar value.

Data request: Query (sequence): YLHRDIFDI ; field requested: pKd
Data returned: ≤ 4.70

Data request: Query (sequence): AFASLQDML ; field requested: pKd
Data returned: 5.89

Data request: Query (sequence): FMSLQSGDV ; field requested: pKd
Data returned: ≤ 4.70

* * *

Exercise: for every item that follows, state its recorded log10 of Kd.
target: HLA-A*33:01; assay: IEDB peptide-MHC binding, purified MHC/competitive/radioactivity; filed as Kd, often an IC50 or EC50 that approximates it; bounds were set here for any values at or beyond the usual limits of such assays; settings: source organism: SARS coronavirus Tor2
The figures below represent log10 of Kd, where Kd is stated in µM.

Data request: # get_value(readout= log10 of Kd, system= HLA-A*33:01) for YVKSPKFSK
Data returned: 0.88

Data request: # get_value(readout= log10 of Kd, system= HLA-A*33:01) for SAQCFKMFYK
Data returned: -0.40

Data request: # get_value(readout= log10 of Kd, system= HLA-A*33:01) for ATSRTLSYYK
Data returned: 0.79

Data request: # get_value(readout= log10 of Kd, system= HLA-A*33:01) for VFAYVGCYNK
Data returned: -0.47

Data request: # get_value(readout= log10 of Kd, system= HLA-A*33:01) for TLQGPPGTGK
Data returned: 0.91

Data request: # get_value(readout= log10 of Kd, system= HLA-A*33:01) for AAAYFVGYLK
Data returned: 0.75

Data request: # get_value(readout= log10 of Kd, system= HLA-A*33:01) for STCFKLMLK
Data returned: 0.16

Data request: # get_value(readout= log10 of Kd, system= HLA-A*33:01) for AVLDMCAALK
Data returned: -0.12

Data request: # get_value(readout= log10 of Kd, system= HLA-A*33:01) for KTVQFCDAMR
Data returned: 0.18

Data request: # get_value(readout= log10 of Kd, system= HLA-A*33:01) for IQFMMSRRR
Data returned: 0.16

Data request: # get_value(readout= log10 of Kd, system= HLA-A*33:01) for LVLLILMTAR
Data returned: 0.74

The measurements presented in this section are drawn from the Immune Epitope Database (IEDB).
